biological target: RNA 5'-monophosphate methyltransferase (Homo sapiens); assay: Inhibition of BCDIN3D (unknown origin) using mini-helix and SAM as substrate incubated for 1 hr by RapidFire High Throughput mass spectrometry
Records here are stratified by IC50; strata: low (below 0.2 µM), middle (0.2 µM to below 2 µM), high (2 µM or more)

Band of COc1cc(Nc2nc(NCC3(N)CC3)nc3c2cnn3C)cc(OC)c1 ?
middle

Class (by measured IC50) for Cc1ccc(CNc2nc(NCCN)nc3c2cnn3C)cc1Cl
middle

Hello team, could you let me know which band the following compound falls into: Cn1ncc2c(NCC3CC(C(F)(F)F)C3)nc(NC[C@H](N)c3ccccc3)nc21 (some centres undefined)
low

Given Cn1ncc2c(NC34CC(C3)C4)nc(NCC(N)c3ccccc3)nc21 (centres undefined) , name the class its IC50 places it in.
low

Note: place this compound into its band. Item: Cn1ncc2c(NC3CCC(F)(F)C3)nc(NC[C@H](N)c3ccccc3)nc21 (some centres undefined)
middle

Form: Item = Cc1cc(Nc2nc(NCC(N)CF)nc3c2cnn3C)ccc1Cl (centres undefined) ; Class = ?
high

The entry to classify is CNc1nc(NC[C@](C)(N)c2ccccc2)nc2c1cnn2C ; which class holds it?
high

Lab note: which band did Cn1ncc2c(Nc3cc(F)cc(F)c3)nc(NCC3(N)CC3)nc21 land in?
middle

Hey, which category is Cn1ncc2c(Nc3ccc(C(F)(F)F)nc3)nc(NC[C@@](C)(N)c3ccccc3)nc21 in, do you know?
low

---

biological target: RNA 5'-monophosphate methyltransferase (Homo sapiens, UniProt Q7Z5W3); assay: Binding affinity towards N-terminal ePL-tagged BCDIN3D (unknown origin) transfected in human A549 cells preincubated for 1 hr and measured by InCellPulse thermal stability assay; assay type: cell-based
Sequence (Q7Z5W3 whole entry): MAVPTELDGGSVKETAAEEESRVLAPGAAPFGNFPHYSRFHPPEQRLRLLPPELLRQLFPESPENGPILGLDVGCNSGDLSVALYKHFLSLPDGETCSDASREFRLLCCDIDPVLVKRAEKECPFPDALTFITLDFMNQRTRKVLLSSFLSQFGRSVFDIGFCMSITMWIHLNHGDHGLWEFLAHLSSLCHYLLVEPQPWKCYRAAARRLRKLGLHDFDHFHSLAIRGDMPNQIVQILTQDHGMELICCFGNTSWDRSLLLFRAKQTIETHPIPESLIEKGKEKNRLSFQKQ
experimental_endpoint: pIC50
Bear in mind: pIC50 is minus log10 of a mol/L concentration; give just that figure.

Example compounds with recorded pIC50:
Lab request: please report pIC50 under test system RNA 5'-monophosphate methyltransferase (Homo sapiens, UniProt Q7Z5W3) for Cc1ccc(CNc2nc(NCCN)nc3c2cnn3C)cc1Cl
5.19

Record Cn1ncc2c(Nc3ccc(C(F)(F)F)cc3)nc(NCC3(N)COC3)nc21 : what is its pIC50 with RNA 5'-monophosphate methyltransferase (Homo sapiens, UniProt Q7Z5W3)?
5.18

Report pIC50 for Cn1ncc2c(NC3CCC(F)(F)C3)nc(NC[C@H](N)c3ccccc3)nc21 (stereo not given in full) tested on RNA 5'-monophosphate methyltransferase (Homo sapiens, UniProt Q7Z5W3).
6.24

I'm curious: which pIC50 was measured for Cc1cc(Nc2nc(NCC(N)CF)nc3c2cnn3C)ccc1Cl (stereo not given) tested on RNA 5'-monophosphate methyltransferase (Homo sapiens, UniProt Q7Z5W3)?
5.26

Proceed to the following item.
Give the reported pIC50 for Cn1ncc2c(Nc3cc(F)cc(F)c3)nc(NCC3(N)CC3)nc21 (system: RNA 5'-monophosphate methyltransferase (Homo sapiens, UniProt Q7Z5W3)).
5.33
